- Assay Target: CK2α (Homo sapiens, UniProt P68400)
- Sequence (P68400 2-329): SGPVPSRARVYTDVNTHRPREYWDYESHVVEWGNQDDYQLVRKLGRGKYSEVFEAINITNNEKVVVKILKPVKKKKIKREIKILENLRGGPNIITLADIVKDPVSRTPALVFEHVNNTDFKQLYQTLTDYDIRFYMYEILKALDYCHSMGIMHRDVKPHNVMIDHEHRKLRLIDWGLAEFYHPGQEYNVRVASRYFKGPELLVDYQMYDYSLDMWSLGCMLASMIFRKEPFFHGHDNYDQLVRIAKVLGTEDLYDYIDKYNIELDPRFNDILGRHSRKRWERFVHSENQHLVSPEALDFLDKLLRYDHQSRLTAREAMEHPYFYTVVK
Readout Name: pIC50
# pIC50: negative log10 of molar concentration; output just the value

**Query** What value of pIC50 has been reported for the following compound? O=C(CCNCc1ccc(OC(F)(F)F)c(Cl)c1)NCCCOc1cc(-n2cnnc2)cc2[nH]ncc12
**Result** 8.50

**Query** What value of pIC50 has been reported for the following compound? N#CCc1cccc(CNCCC(=O)NCCCNc2cc(-n3cnnc3)cc3[nH]ncc23)c1
**Result** 8.58

**Query** What value of pIC50 has been reported for the following compound? Cc1nc(-c2cc(NCCCNC(=O)CCNCc3ccc(-c4ccccc4)c(Cl)c3)c3cn[nH]c3c2)c[nH]1
**Result** 8.11

Further cases:
**Query** What value of pIC50 has been reported for the following compound? Cc1nccn1-c1cc(NCCCNC(=O)CCNCc2ccc(-c3ccccc3)c(Cl)c2)c2cn[nH]c2c1
**Result** 7.33

----------
Entries below carry reported pIC50 on CLK2 (Homo sapiens, UniProt P49760).
Sequence (P49760 whole entry): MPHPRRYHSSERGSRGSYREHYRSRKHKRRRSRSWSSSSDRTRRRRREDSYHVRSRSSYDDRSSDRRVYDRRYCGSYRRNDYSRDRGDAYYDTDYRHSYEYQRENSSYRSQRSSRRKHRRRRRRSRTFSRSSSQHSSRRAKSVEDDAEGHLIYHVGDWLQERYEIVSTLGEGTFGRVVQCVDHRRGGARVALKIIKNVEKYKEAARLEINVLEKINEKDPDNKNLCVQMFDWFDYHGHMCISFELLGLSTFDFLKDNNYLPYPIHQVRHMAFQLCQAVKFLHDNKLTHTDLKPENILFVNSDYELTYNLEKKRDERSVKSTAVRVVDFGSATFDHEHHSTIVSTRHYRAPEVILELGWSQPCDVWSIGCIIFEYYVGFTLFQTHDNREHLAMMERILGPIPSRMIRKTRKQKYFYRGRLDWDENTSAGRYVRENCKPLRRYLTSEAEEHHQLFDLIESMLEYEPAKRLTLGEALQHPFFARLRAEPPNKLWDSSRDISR
# pIC50: negative log10 of molar concentration; output just the value

// known answers, use as guide
**Query** What value of pIC50 has been reported for the following compound? N#CCc1cccc(CNCCC(=O)NCCCNc2cc(-n3cnnc3)cc3[nH]ncc23)c1
**Result** 6.88

**Query** What value of pIC50 has been reported for the following compound? O=C(CCNCc1ccc(-c2ccccc2)c(Cl)c1)NCCCNc1cc(-c2cnoc2)cc2[nH]ncc12
**Result** 6.97

**Query** What value of pIC50 has been reported for the following compound? Cc1cc(CC#N)cc(CNCCCCOC2CN(c3cc(-c4ccnnc4)cc4[nH]ncc34)C2)c1
**Result** 5.19

**Query** What value of pIC50 has been reported for the following compound? Cc1cc(CC#N)cc(CNCCCCOC2CN(c3cc(-n4cnnc4)cc4[nH]ncc34)C2)c1
**Result** 6.43

Further cases:
**Query** What value of pIC50 has been reported for the following compound? O=C(CCNCc1ccc(-c2ccccc2)c(Cl)c1)NCCCNc1cccc2[nH]ncc12
**Result** 5.46

**Query** What value of pIC50 has been reported for the following compound? N#CCc1cc(NCCOCCCCNCc2cc(CO)cc(OC(F)(F)F)c2)c2cn[nH]c2c1
**Result** 5.46

**Query** What value of pIC50 has been reported for the following compound? O=C(CCNCc1ccc(-c2ccccc2)c(Cl)c1)NCCCNc1cc(-c2cc[n+]([O-])cc2)cc2[nH]ncc12
**Result** 5.59

**Query** What value of pIC50 has been reported for the following compound? C[C@@H](CCCOCCNc1cc(-c2cnnc(O)c2)cc2[nH]ncc12)NCc1cc(Cc2cnco2)cc(OC(F)(F)F)c1
**Result** 6.64

**Query** What value of pIC50 has been reported for the following compound? FC(F)(F)c1ccc2[nH]c(CNCCCCOCCNc3cc(-c4ccnnc4)cc4[nH]ncc34)cc2c1
**Result** 6.25

**Query** What value of pIC50 has been reported for the following compound? CN(C)C(=O)c1cc(NCCCNC(=O)CCNCc2ccc(-c3ccccc3)c(Cl)c2)c2cn[nH]c2c1
**Result** 4.85

**Query** What value of pIC50 has been reported for the following compound? FC(F)(F)c1ccc2[nH]c(CNCCCCOC3CN(c4cc(-n5cnnc5)cc5[nH]ncc45)C3)cc2c1
**Result** 6.73

**Query** What value of pIC50 has been reported for the following compound? O=C(CCNCc1ccc(OC(F)(F)F)c(Cl)c1)NCCCNc1cc(-c2cnns2)cc2[nH]ncc12
**Result** 7.12

**Query** What value of pIC50 has been reported for the following compound? N#CCc1cc(CNCCCCOC2CN(c3cc(-c4ccnnc4)cc4[nH]nnc34)C2)cc(OC(F)(F)F)c1
**Result** 4.40

**Query** What value of pIC50 has been reported for the following compound? C[C@@H](CCCOCCNc1cc(-c2cnns2)cc2[nH]ncc12)NCc1cc(CO)cc(OC(F)(F)F)c1
**Result** 6.62

**Query** What value of pIC50 has been reported for the following compound? CNc1n[nH]c2cc(-n3cnnc3)cc(NCCCNC(=O)CCNCc3ccc(OC(F)(F)F)c(Cl)c3)c12
**Result** 6.88

----------
- Assay Target: intracellular CK2α (Homo sapiens, UniProt P19784)
- Sequence (P19784 whole entry): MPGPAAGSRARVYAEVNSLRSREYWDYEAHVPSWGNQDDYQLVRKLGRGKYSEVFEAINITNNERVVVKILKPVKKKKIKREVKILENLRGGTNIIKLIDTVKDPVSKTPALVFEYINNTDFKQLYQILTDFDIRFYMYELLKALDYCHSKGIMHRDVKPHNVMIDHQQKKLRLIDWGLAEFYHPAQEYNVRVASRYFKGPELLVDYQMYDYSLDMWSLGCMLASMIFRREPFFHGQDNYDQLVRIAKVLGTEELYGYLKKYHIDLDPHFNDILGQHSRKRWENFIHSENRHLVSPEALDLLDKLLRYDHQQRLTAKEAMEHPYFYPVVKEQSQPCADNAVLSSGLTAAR
- Protocol Description: Cell-based NanoBRET assay for inhibitor binding to intracellular CK2α
- Experimental Parameters: HCT116 cells transiently transfected with CSNK2A2-NanoLuc fusion vector; Tracer K-5; 2 h; read-out: Assay 3: NanoBRET ™ assay for binding to intracellular CK2α
Readout Name: IC50
The answer consists of two parts: a number and, after it, its unit.

**Query** What value of IC50 has been reported for the following compound? O=C(CCNCc1ccc(OC(F)(F)F)c(Cl)c1)NCCCNc1cc(-c2ccncc2)c(F)c2[nH]ncc12
**Result** 100 nM

**Query** What value of IC50 has been reported for the following compound? O=C(CCNCc1ccc(-c2ccccc2)c(Cl)c1)NCCCNc1cc(-c2cncnc2)cc2[nH]ncc12
**Result** 743 nM

**Query** What value of IC50 has been reported for the following compound? Cc1cc(CC#N)cc(CNCCCCOC2CN(c3cc(-c4ccnnc4)cc4[nH]ncc34)C2)c1
**Result** 9910 nM

**Query** What value of IC50 has been reported for the following compound? O=C(CCNCc1ccc(OC(F)(F)F)c(CO)c1)NCCCNc1cc(-n2cnnc2)cc2[nH]ncc12
**Result** 16800 nM

**Query** What value of IC50 has been reported for the following compound? FC(F)(F)c1ccc2[nH]c(CNCCCCOCCNc3cc(-c4ccnnc4)cc4[nH]nnc34)cc2c1
**Result** 1410 nM

**Query** What value of IC50 has been reported for the following compound? O=C(CCNCc1ccc(-c2ccccc2)c(Cl)c1)NCCCNc1cc(-c2ccnnc2)cc2[nH]ncc12
**Result** 50.8 nM

**Query** What value of IC50 has been reported for the following compound? Cc1cc(CC#N)cc(CNCCCCOC2CN(c3cc(-n4cnnc4)cc4[nH]ncc34)C2)c1
**Result** 26600 nM

----------
- Assay Target: CK2α (Homo sapiens, UniProt P68400)
pIC50: −log10 of the molar value.
Would you please tag the item Y when its pIC50 is 8 or above, and N when it is below?

Here are 6 compounds together with their reported answers.
**Query** Determine whether measured pIC50 meets or exceeds 8 for N#CCc1cc(F)cc(CNCCCCOC2CN(c3cc(-c4ccnnc4)cc4[nH]ncc34)C2)c1 [Example 113]
**Result** N

**Query** Determine whether measured pIC50 meets or exceeds 8 for N#CCc1cc(NCCOCCCCNCc2cc(CO)cc(OC(F)(F)F)c2)c2cn[nH]c2c1 [Example 204]
**Result** N

**Query** Determine whether measured pIC50 meets or exceeds 8 for N#Cc1n[nH]cc1-c1cc(NCCCNC(=O)CCNCc2ccc(-c3ccccc3)c(Cl)c2)c2cn[nH]c2c1 [Example 7]
**Result** Y

**Query** Determine whether measured pIC50 meets or exceeds 8 for N#Cc1cc(-c2cc(NCCCNC(=O)CCNCc3ccc(-c4ccccc4)c(Cl)c3)c3cn[nH]c3c2)ccn1 [Example 74]
**Result** N

**Query** Determine whether measured pIC50 meets or exceeds 8 for Cc1c(-c2ccncc2)cc(NCCCNC(=O)CCNCc2ccc(OC(F)(F)F)c(Cl)c2)c2cn[nH]c12 [Example 178]
**Result** N

**Query** Determine whether measured pIC50 meets or exceeds 8 for O=C(CCNCc1ccc(OC(F)(F)F)c(Cl)c1)NCCCNc1cc(-c2ccncc2)c(F)c2[nH]ncc12 [Example 180]
**Result** Y

Further cases:
**Query** Determine whether measured pIC50 meets or exceeds 8 for FC(F)(F)Oc1ccc(CNCCCCOC2CN(c3cc(-c4ccnnc4)cc4[nH]nnc34)C2)cc1Cl [Example 150]
**Result** N

**Query** Determine whether measured pIC50 meets or exceeds 8 for N#CCc1cc(CNCCCCOC2CN(c3cc(-n4cnnc4)cc4[nH]ncc34)C2)cc(C(F)(F)F)c1 [Example 105]
**Result** N

**Query** Determine whether measured pIC50 meets or exceeds 8 for CC(C)(C#N)c1cc(NCCOCCCCNCc2cc(CO)cc(OC(F)(F)F)c2)c2cn[nH]c2c1 [Example 206]
**Result** N
